- STUDY_TARGET: T1, human CD33 (human, UniProt P20138 18-259, limits assumed)
- T1 construct: Human CD33 immobilized on the BLI sensor tip or the BIAcore C1 chip; also called Siglec-3
- T1 sequence (P20138 18-259 limits assumed): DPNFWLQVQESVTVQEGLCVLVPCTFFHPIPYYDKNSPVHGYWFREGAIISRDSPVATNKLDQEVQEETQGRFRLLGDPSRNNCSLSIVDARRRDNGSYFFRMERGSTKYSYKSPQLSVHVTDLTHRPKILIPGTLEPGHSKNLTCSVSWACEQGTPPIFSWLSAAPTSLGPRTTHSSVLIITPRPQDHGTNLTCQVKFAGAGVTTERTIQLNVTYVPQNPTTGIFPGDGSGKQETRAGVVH
- TEST_DETAILS: BLI (ForteBio), Fab 100 nM on immobilized CD33
PROPERTY_MEASURED: pKd
Numbers only, as −log10 of the molar value.

{"columns": ["BINDER", "pKd"],
 "data": [
  ["AB-63.5 (antibody, V domains shown) VH: QVQLVQSGAEVKKPGASVKVSCKASGYTFTDYNNHWVRQAPGQGLEWIGFIYPSNGITGYAQKFQGRVTMTVDTSTSTVYMELSSLRSEDTAVYYCARSDVDYFDYWGQGTLVTVSS VL: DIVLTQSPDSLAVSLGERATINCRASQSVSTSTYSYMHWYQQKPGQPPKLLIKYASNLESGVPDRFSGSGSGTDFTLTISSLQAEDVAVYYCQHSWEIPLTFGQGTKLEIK", 9.21]
]}

What the record says about AB-63.18 (antibody, V domains shown) VH: QVQLVQSGAEVKKPGSSVKVSCKASGYTHTDYNLHWVRQAPGQGLEWIGFIYPSNGITGYAQKFQGRVTMTVDTSTSTVYMELSSLRSEDTAVYYCARSDVDYFDYWGQGTLVTVSS VL: DIVLTQSPDSLAVSLGERATINCRASQSVSTSTYSYMHWYQQKPGQPPKLLIKYESNLESGVPDRFSGSGSGTDFTLTISSLQAEDVAVYYCQHSWEIPLTFGQGTKLEIK : pKd is 9.21
